Origin of the recorded values: ChEMBL document CHEMBL5724914

Experiment: The drug is tested on WLS-052 corresponding to human gut metagenome with ENA study accession number: PRJEB37062 and ENA sample accession number: ERS12561747 for biotransformation under anaerobic condition. The drug concentrations were measured over 9 timepoints collected between 0 and 24 hours of incubation by liquid-chromatography-coupled mass spectrometry (LC–MS); also: call rule not given here
Conditions: 2 µM
Measurement type: Bacterial Biotransformation

Query CCc1nn(CCCN2CCN(c3cccc(Cl)c3)CC2)c(=O)n1CCOc1ccccc1 yields Bacterial Biotransformation of Compound metabolized

Query O=c1n(CCCN2CCN(c3cccc(Cl)c3)CC2)nc2ccccn12 yields Bacterial Biotransformation of Compound NOT metabolized

Query CCCCC1=NC2(CCCC2)C(=O)N1Cc1ccc(-c2ccccc2-c2nnn[nH]2)cc1 yields Bacterial Biotransformation of Compound metabolized

Query CCN1CCCC1CNC(=O)c1cc(S(N)(=O)=O)ccc1OC (stereo unspecified) [SULPIRIDE] yields Bacterial Biotransformation of Compound NOT metabolized

Here's the next entry for you.
Query COc1c2occc2cc2ccc(=O)oc12 yields Bacterial Biotransformation of Compound metabolized

====

Test: The drug is tested on Z-011 corresponding to mouse gut metagenome with ENA study accession number: PRJEB37062 and ENA sample accession number: ERS12561811 for biotransformation under anaerobic condition. The drug concentrations were measured over 9 timepoints collected between 0 and 24 hours of incubation by liquid-chromatography-coupled mass spectrometry (LC–MS)
Conditions: 2 µM
Measurement type: Bacterial Biotransformation

// below: answered compounds
Query CN/C(=N/CCSCc1nc[nH]c1C)NC#N [CIMETIDINE] yields Bacterial Biotransformation of Compound NOT metabolized

Query CCCCC1=NC2(CCCC2)C(=O)N1Cc1ccc(-c2ccccc2-c2nnn[nH]2)cc1 [IRBESARTAN] yields Bacterial Biotransformation of Compound NOT metabolized

Query N#Cc1ccc(C(c2ccc(C#N)cc2)n2cncn2)cc1 [LETROZOLE] yields Bacterial Biotransformation of Compound NOT metabolized

Query CCCCCOC(=O)Nc1nc(=O)n([C@@H]2O[C@H](C)[C@@H](O)[C@H]2O)cc1F [CAPECITABINE] yields Bacterial Biotransformation of Compound metabolized

Query NC(=O)N1c2ccccc2CC(=O)c2ccccc21 [OXCARBAZEPINE] yields Bacterial Biotransformation of Compound NOT metabolized

Continuing:
Query O=C1[C@H](CC[C@H](O)c2ccc(F)cc2)[C@@H](c2ccc(O)cc2)N1c1ccc(F)cc1 [EZETIMIBE] yields Bacterial Biotransformation of Compound NOT metabolized

Query CN1CCN(C(=O)O[C@H]2c3nccnc3C(=O)N2c2ccc(Cl)cn2)CC1 [ESZOPICLONE] yields Bacterial Biotransformation of Compound NOT metabolized

Query CN1CC(=O)N2[C@H](c3ccc4c(c3)OCO4)c3[nH]c4ccccc4c3C[C@@H]2C1=O yields Bacterial Biotransformation of Compound NOT metabolized

Query COCCc1ccc(OCC(O)CNC(C)C)cc1.COCCc1ccc(OCC(O)CNC(C)C)cc1.O=C(O)C(O)C(O)C(=O)O (configuration not stated) [METOPROLOL TARTRATE] yields Bacterial Biotransformation of Compound NOT metabolized

Query COC(=O)Nc1nc2ccc(C(=O)c3ccccc3)cc2[nH]1 [MEBENDAZOLE] yields Bacterial Biotransformation of Compound metabolized

Query CN(C)CCc1c[nH]c2ccc(Cn3cncn3)cc12.O=C(O)c1ccccc1 [RIZATRIPTAN BENZOATE] yields Bacterial Biotransformation of Compound NOT metabolized

Query CCN(CC)CCNC(=O)c1cc(Cl)c(N)cc1OC [METOCLOPRAMIDE] yields Bacterial Biotransformation of Compound NOT metabolized
